Data provenance is patent US20260193326A1.

# Assay system: T1, AAV9
# T1 construct: also called adeno-associated virus serotype 9
# Assay summary: SPR, AAV on CM5 chip;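 also: surface plasmon resonance with AAV amine-coupled to the chip as ligand, nanobodies injected as analyte over a concentration series, rate constants and affinity fitted from binding curves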
Catalogue of binders with associated kon
Measured endpoint: kon (M⁻¹ s⁻¹)

Binder	Result units	Experimental value
A4-017 (VHH) VHH: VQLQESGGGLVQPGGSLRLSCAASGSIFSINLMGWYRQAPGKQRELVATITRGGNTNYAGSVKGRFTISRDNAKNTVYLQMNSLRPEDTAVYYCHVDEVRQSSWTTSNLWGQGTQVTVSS	M⁻¹ s⁻¹	55300
A4-040 (VHH) VHH: VQLQESGGGLVQPGGSLRLSCAASGRIFSINTMGWYRQAPGKQRELVATVTRGGSTNYADSVKGRFTISRDNAKNTVYLQMNSLRPEDTAVYYCHVDEIRQSSWTTSNLWGQGTQVTVSS	M⁻¹ s⁻¹	101000
